All values here come from paper PMC12102759.

B1: PEX5 peptide 238-253 (Peroxisomal targeting signal 1 receptor), 16-mer library wild type / PEX14 Pex14 (PEX14 PEX14, residues 16-84) (parent)
chain 1: AQAEQWAAEFIQQQGT
chain 2: TPGSENVLPREPLIATAVKFLQNSRVRQSPLATRRAFLKKKGLTDEEIDMAFQQSGTAADEPSSLGPAT

variants of: B1; assay: proteomic peptide phage display deep mutational scan (ProP-PD DMS): M13 P8 16-mer library selected against immobilised GST-tagged bait for four days (rounds), NGS of the eluted pools per day and pseudo-replica; conditions: with PEX14 Pex14 (PEX14 PEX14, residues 16-84); bait immobilised on MaxiSorp plates (10 µg), library pre-cleared on GST, 2 h binding at 4 °C, five washes; one round per day, days 1-4; value from days 2 and 3; keep out of graded; scale: average fractional NGS count over selection days 2 and 3
Below, each entry is listed with its recorded screen value.
Measured metric: screen value

• chain 1 Q14G = 0.00214
• chain 1 A7V = 0
• chain 1 Q2P = 0.00113
• chain 1 G15Y = 0
